Value source: patent US20230183179A1

Listing: inhibition at 1085 µM (stock) of selected molecules
Target: His6 tagged human recombinant FABP4 (Homo sapiens, UniProt P15090)
Construct: purchased Cayman Chemicals 10009549
Sequence (P15090 whole entry): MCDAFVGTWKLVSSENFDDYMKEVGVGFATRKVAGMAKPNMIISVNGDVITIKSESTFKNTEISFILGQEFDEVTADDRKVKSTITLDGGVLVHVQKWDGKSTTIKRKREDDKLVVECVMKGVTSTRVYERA
Experiment: FABP4 TR-FRET assay: displacement of fluorescent fatty acid BODIPY FL C12
Details: inhibition of BODIPY FL C12 binding to His6-FABP4; 1.2 μL of 1.085 mM compound in DMSO per well; triplicates, mean percent inhibition
Respond numerically; units are % and should not be typed.

Look over these answered cases.
SMILES_RECORD | UNIT_STRING | MEAS_VALUE
COc1ccccc1CCc1ccc2nc(N(C)CC(=O)O)cc(-c3ccccc3)c2c1 | % | 65.1
CN(CC(=O)O)c1cc(-c2ccccc2)c2cc(CCc3ccc4cccnc4c3)ccc2n1 | % | 43.5
CCCCCCc1ccc2nc(N(C)CC(=O)O)cc(Oc3ccc(F)cc3)c2c1 | % | 65.2
Clc1ccc2nc(N3CCCCC3)cc(-c3ccccc3)c2c1 | % | 64.3

Query CCc1ccc2nc(N(C)CC(=O)O)cc(-c3cccc(C(N)=O)c3)c2c1 on His6 tagged human recombinant FABP4 (Homo sapiens, UniProt P15090); inhibition at 1085 µM (stock) returned: 78
